- system under test: WRN [UniPro: Q14191 (WRN_HUMAN), N500-C946] (Homo sapiens (Human), UniProt Q14191)
- Sequence (Q14191 500-946): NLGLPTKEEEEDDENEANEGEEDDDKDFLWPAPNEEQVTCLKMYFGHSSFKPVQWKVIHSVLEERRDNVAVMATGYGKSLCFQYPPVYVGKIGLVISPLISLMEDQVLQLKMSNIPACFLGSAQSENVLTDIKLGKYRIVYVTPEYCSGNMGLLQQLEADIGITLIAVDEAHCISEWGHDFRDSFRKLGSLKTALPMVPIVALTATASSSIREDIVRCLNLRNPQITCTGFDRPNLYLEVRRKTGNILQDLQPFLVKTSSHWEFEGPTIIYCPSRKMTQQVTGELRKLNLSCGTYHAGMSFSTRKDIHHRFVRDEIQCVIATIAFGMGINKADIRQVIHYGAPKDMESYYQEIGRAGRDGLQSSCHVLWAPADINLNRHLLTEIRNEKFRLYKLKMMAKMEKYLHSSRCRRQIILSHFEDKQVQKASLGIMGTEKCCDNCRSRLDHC
- assay protocol: WRN unwinding assay (FORKF DNA, fluorescence)
- Assay type: biochemical
- condition parameters: Table 14
pIC50: −log10 of the molar value.
Please respond with reported pIC50 for every item in the list.

INSERT INTO results (compound, system_under_test, reported) VALUES
  ('CCc1c(N2CCN(C(=O)CNC(=O)CC3CC3)CC2)c(=O)n2nc(C3=CCOCC3)nc2n1CC(=O)Nc1ccc(C(F)(F)F)cc1Cl [Example 275]', 'WRN [UniPro: Q14191 (WRN_HUMAN), N500-C946] (Homo sapiens (Human), UniProt Q14191)', '> 7.00');

Could I get pIC50 for every one of these entries?
1. CCc1c(N2CCN(C(=O)CNC(=O)c3ccccc3F)CC2)c(=O)n2nc(SC)nc2n1CC(=O)Nc1ccc(C(F)(F)F)cc1Cl [Example 241]
2. CCc1c(N2CCN(C(=O)CNC(=O)c3cc(NC)ccc3F)CC2)c(=O)n2nc(C3=CCOCC3)nc2n1CC(=O)Nc1ccc(C(F)(F)F)cc1Cl [Example 289]
3. CCc1c(N2CCN(C(=O)CNC(=O)Cc3cscn3)CC2)c(=O)n2nc(C3=CCOCC3)nc2n1CC(=O)Nc1ccc(C(F)(F)F)cc1Cl [Example 276]

Response:
6.00 to 7.00
> 7.00
> 7.00

* * *

Could you please report measured pIC50 for the items listed next?
- system under test: WRN [UniPro: Q14191 (WRN_HUMAN), N500-C946] (Homo sapiens (Human), UniProt Q14191)
- assay protocol: WRN ATPase assay (ADP-Glo)
- Format: biochemical
- condition parameters: WRN enzymatic activity assay
pIC50: −log10 of the molar value.

Record excerpt, results attached:
INSERT INTO measurements (compound, reported) VALUES
  ('CCc1c(N2CCN(C(=O)CNC(=O)c3cc(F)cc(F)c3)CC2)c(=O)n2nc(C3=CCOCC3)nc2n1CC(=O)Nc1ccc(C(F)(F)F)cc1Cl', '> 7.00'),
  ('CCc1c(N2CCN(C(=O)CNC(=O)c3ccccc3F)CC2)c(=O)n2nc(C3=CCOCC3)nc2n1CC(=O)Nc1ccc(C(F)(F)F)nc1Cl', '> 7.00'),
  ('CCc1c(N2CCN(C(=O)CNC(=O)c3ccccc3)CC2)c(=O)n2nc(C3=CCOCC3)nc2n1CC(=O)N(C)c1ccc(C(F)(F)F)cc1Cl', '6.00 to 7.00'),
  ('CCc1c(N2CCN(C(=O)c3[nH]cnc3F)CC2)c(=O)n2nc(C3=CCOCC3)nc2n1CC(=O)Nc1ccc(C(F)(F)F)cc1Cl', '6.00 to 7.00'),
  ('CCc1c(N2CCN(C(=O)CNC(=O)c3cc(N)ccc3F)CC2)c(=O)n2nc(C3=CCOCC3)nc2n1CC(=O)Nc1ccc(C(F)(F)F)cc1Cl', '> 7.00');

// input: 3 compounds below; output: pIC50 for each
1. CCc1c(N2CCN(C(=O)c3cc4sccc4[nH]c3=O)CC2)c(=O)n2nc(C3=CCOCC3)nc2n1CC(=O)Nc1ccc(C(F)(F)F)cc1Cl
2. CCc1c(N2CCN(C(=O)CNC(=O)CC3CCC3)CC2)c(=O)n2nc(C3=CCOCC3)nc2n1CC(=O)Nc1ccc(C(F)(F)F)cc1Cl
3. CCc1c(N2CCN(C(=O)c3sc4ncccc4c3O)CC2)c(=O)n2nc(C3=CCOCC3)nc2n1CC(=O)Nc1ccc(C(F)(F)F)cc1Cl

Response:
["> 7.00", "> 7.00", "> 7.00"]

Query: Look at this compound and give its reported pIC50. CCc1c(N2CCN(C(=O)c3sc4cccnc4c3N)CC2)c(=O)n2nc(C3=CCOCC3)nc2n1CC(=O)Nc1ccc(C(F)(F)F)cc1Cl
Response: 6.00 to 7.00

* * *

- system under test: WRN [UniPro: Q14191 (WRN_HUMAN), N500-C946] (Homo sapiens (Human), UniProt Q14191)
- assay protocol: WRN unwinding assay (FORKF DNA, fluorescence)
- Assay type: biochemical
- condition parameters: Table 14
pIC50: −log10 of the molar value.
Exercise: for every item that follows, state its recorded pIC50.

Please supply pIC50 for each of the following items, keeping them in order.
1. CCc1c(N2CCN(C(=O)CNC(=O)c3ccccc3)CC2)c(=O)n2nc(C3CC3)nc2n1CC(=O)Nc1ccc(C(F)(F)F)cc1Cl
2. CCc1c(N2CCN(C(=O)C(=O)N3CCCC3)CC2)c(=O)n2nc(C3=CCOCC3)nc2n1CC(=O)Nc1ccc(C(F)(F)F)cc1Cl
3. CCc1c(N2CCN(C(=O)NS(=O)(=O)c3cnn(C)c3)CC2)c(=O)n2nc(C3=CCOCC3)nc2n1CC(=O)Nc1ccc(C(F)(F)F)cc1Cl
4. CCc1c(N2CCN(C(=O)CNC(=O)c3csc(C)n3)CC2)c(=O)n2nc(C3=CCOCC3)nc2n1CC(=O)Nc1ccc(C(F)(F)F)cc1Cl

Response:
6.00 to 7.00
6.00 to 7.00
> 7.00
> 7.00
